# study.target: Hepatocyte growth factor receptor (Homo sapiens)
# Sequence (P08581 whole entry): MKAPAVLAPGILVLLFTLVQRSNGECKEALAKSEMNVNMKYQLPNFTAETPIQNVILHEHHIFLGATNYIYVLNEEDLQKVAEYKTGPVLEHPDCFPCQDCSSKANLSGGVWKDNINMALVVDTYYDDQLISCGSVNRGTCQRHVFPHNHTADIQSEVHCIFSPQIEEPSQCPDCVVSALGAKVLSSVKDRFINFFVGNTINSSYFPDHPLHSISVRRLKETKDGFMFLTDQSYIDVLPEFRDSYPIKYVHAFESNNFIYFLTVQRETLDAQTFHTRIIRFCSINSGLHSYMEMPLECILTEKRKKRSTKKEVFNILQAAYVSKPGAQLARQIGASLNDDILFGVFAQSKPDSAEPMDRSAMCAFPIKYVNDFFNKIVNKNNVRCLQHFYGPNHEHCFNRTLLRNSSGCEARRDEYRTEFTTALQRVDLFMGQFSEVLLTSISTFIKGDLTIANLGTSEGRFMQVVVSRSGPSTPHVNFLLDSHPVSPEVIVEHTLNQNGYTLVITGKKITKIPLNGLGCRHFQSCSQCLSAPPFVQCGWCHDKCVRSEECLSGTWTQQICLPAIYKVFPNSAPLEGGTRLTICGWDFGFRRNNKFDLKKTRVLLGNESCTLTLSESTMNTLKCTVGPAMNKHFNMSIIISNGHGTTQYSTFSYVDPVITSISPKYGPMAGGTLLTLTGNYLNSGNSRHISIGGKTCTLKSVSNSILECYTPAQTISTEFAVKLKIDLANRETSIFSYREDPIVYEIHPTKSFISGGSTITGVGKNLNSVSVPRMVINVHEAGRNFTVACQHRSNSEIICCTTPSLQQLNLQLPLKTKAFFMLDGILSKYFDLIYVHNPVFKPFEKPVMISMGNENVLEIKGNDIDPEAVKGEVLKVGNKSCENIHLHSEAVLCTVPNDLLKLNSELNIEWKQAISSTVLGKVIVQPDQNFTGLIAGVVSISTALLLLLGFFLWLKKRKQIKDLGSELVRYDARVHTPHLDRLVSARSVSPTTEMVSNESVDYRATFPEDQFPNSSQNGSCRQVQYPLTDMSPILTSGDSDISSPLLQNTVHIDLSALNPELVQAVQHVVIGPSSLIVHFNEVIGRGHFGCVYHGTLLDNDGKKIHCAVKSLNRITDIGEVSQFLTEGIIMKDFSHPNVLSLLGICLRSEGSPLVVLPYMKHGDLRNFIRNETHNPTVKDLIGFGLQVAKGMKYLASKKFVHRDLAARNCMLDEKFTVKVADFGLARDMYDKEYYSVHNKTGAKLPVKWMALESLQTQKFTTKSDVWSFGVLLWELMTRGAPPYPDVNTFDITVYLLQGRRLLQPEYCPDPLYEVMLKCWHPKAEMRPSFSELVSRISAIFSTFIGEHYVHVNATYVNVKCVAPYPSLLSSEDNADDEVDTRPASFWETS
measured.metric: pIC50
Quick note: pIC50 values are minus log10 of concentrations in mol/L.

Please look at COc1ccc(-n2cc(C(=O)Nc3ccc(Oc4ccnc5[nH]ccc45)c(F)c3)c(=O)c(-c3ccc(F)cc3)c2)cc1F and tell me its recorded pIC50 on Hepatocyte growth factor receptor (Homo sapiens).
8.64

// data source = BindingDB's records for doi:10.1021/jm800476q
